# method_notes: NCI Yeast Anticancer Drug Screen. Data for the cln2 rad14 strain (AID 165);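 also: 0% = growth equal to vehicle treated cultures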
# condition_summary: S. cerevisiae cln2 rad14 strain, at 50.0 µM, stronger effect = higher value
This is part of a sample that, as a whole, favours compounds with a hit. Of some 79,000 tested, about 15% had one in any assay.
observation_type: growth inhibition (%)
Quick reminder: number only, in %, skip the unit.

Request: Consider the compound C=CCOC(=O)C(O)C=C (stereo not given) and give its measured growth inhibition.
Response: 16.4

Request: Try CCC/C(CC)=N\Nc1ccc([N+](=O)[O-])cc1[N+](=O)[O-] next.
Response: 30.9

Request: Try C[n+]1c(-c2ccc(/C=N/NC(=O)c3cc(O)c(C(=O)N/N=C/c4ccc(-c5cn6ccccc6[n+]5C)cc4)cc3O)cc2)cn2ccccc21 next.
Response: -39.5

Request: Try Fc1ccc(NC(=S)Nc2ccccn2)cc1 next.
Response: -59.5

Request: Try COc1ccc2nc3cc(Cl)ccc3c(NCCCNCCCNc3c4ccc(Cl)cc4nc4ccc(OC)cc34)c2c1 next.
Response: 3.5

Request: Try COCCCC(NC(=O)C(CC(C)C)NC(=O)OCc1ccc(OC)cc1)C(N)=O (stereo not given) next.
Response: 4.2

Request: Try COc1cc(CC(NC(=O)c2ccccc2)C(C)=O)cc(OC)c1OC (stereo not given) next.
Response: -26.2

Request: Try O=C1C(O)=C(Br)C(=O)C(O)=C1Br next.
Response: -12.1

Request: Try Cc1ccc(F)c([N+](=O)[O-])c1 next.
Response: 0

Request: Try CS(=O)(=O)OC1CCC2CCCC1(C(=O)O)C2 (stereo not given) next.
Response: -30

Request: Try CC(=O)N(C)c1ccc(N)cc1 next.
Response: -2.35

Request: Try COc1cc(CC(=O)O)ccc1O next.
Response: -18.4

Request: Try CCCCc1nc2c([nH]1)c(=O)n(C)c(=O)n2C next.
Response: 4.85

Request: Try CN(C)Cc1[nH]c2ccccc2c1C(=O)c1ccccc1 next.
Response: -18.7

Request: Try CCOC(CN(CC)CC)OCC next.
Response: 7.2

Request: Try Oc1ccc2ccccc2c1C(c1cccc2ccccc12)N1CCCCC1 (stereo not given) next.
Response: 3.2

Request: Try COCC(OC)C(Cl)C(=O)Nc1ccc(Br)cc1 (stereo not given) next.
Response: -14.4

Request: Try COC(=O)C1OC2(CCCC3CC32)O[C@H]1C(=O)OC (stereo not given in full) next.
Response: -13.2

Request: Try CN(CC(=O)O)c1ncc2c(n1)-c1ccccc1SC2 next.
Response: 10.3

Request: Try O=C(CCCC(=O)Nc1ccccc1)Nc1ccccc1 next.
Response: -35.2

Request: Try CCn1c2ccccc2c2cc(/C=N/N=C/c3ccc4c(c3)c3ccccc3n4CC)ccc21 next.
Response: -13.7

Request: Try O=C1C=C(Nc2ccc(Cl)cc2C(=O)c2ccccc2)c2ccccc2C1=O next.
Response: 22.2

Request: Try [O-]c1c[n+](-c2ccc3c(c2)OCO3)no1 next.
Response: -16.4

Request: Try O=S1(=O)C2C=CC1CCCC2 next.
Response: -30.9

Request: Try CCCC(=O)OC(C)COc1ccccc1 (stereo not given) next.
Response: -21.4
